Recorded Serum PFAS level, Median, one value per entry.
# protocolNotes: PFAS levels in serum samples of airport employees (LC/MS/MS)
# settings: 1st sampling (September 2018), count 17
// return a plain number; no unit text

molecule="O=S(=O)(O)C(F)(C(F)(F)F)C(F)(F)C(F)(F)C(F)(F)C(F)(F)C(F)(F)C(F)(F)F (stereo not shown) [1m-PFOS, perfluoro-1-methylheptanesulfonate]" measurement=1.0
molecule="O=S(=O)(O)C(F)(F)C(F)(F)C(F)(F)C(F)(F)C(F)(F)C(F)(F)C(F)(F)F [PFHpS, perfluoroheptane sulfonic acid]" measurement=1.6
molecule="O=S(=O)(O)C(F)(F)C(F)(F)C(F)(F)C(F)(F)C(F)(F)F [PFPeS, perfluoropentane sulfonic acid]" measurement=7.6

The record that follows has no Serum PFAS level, Median shown yet.
Measured Serum PFAS level, Median of O=C(O)C(F)(F)C(F)(F)C(F)(F)C(F)(F)C(F)(F)C(F)(F)F [PFHpA, perfluoroheptanoic acid] : 0.53

----------
# protocolNotes: Individual serum elimination rate and half-life (linear regression per employee)
# settings: individual estimate, subject 3, 5 samples
# Description: Serum PFAS concentrations were log-transformed. Time was calculated as the elapsed days between supply of clean bottled water and […] blood sampling. We assumed one compartment, first-order elimination kinetics. […] Method 2: For estimation of individual k, linear regression was used to derive the slope ( β ) of the logarithm of serum concentrations vs. time for each employee. […] If β was positive (i.e., PFAS concentrations tended to increase over the five samplings), the half-life was not calculated.
reportedMetric: Elimination rate (yearly)
Answer in yearly, number only, no unit symbol.

Example results:
chemicalstring=O=S(=O)(O)C(F)(F)C(F)(F)C(F)(F)C(F)(F)C(F)(F)F reportedmetric="Elimination rate" measurement=0.7
chemicalstring=O=C(O)C(F)(F)C(F)(F)C(F)(F)C(F)(F)C(F)(F)C(F)(F)F reportedmetric="Elimination rate" measurement=1.7

Now look at this entry.
compound O=S(=O)(O)C(F)(F)C(F)(F)C(F)(F)C(F)(F)F , Elimination rate observed: 5.1

----------
# protocolNotes: PFAS levels in urine samples of airport employees, specific-gravity adjusted (LC/MS/MS)
# Format: in vivo, human
# settings: 4th sampling (December 2018), count 14
reportedMetric: Specific gravity adjusted urinary level, Median (ng/mL)
State the answer as a number, implicitly in ng/mL.

Use these answered entries as a reference point.
chemicalstring=O=S(=O)(O)C(F)(F)C(F)(F)C(F)(F)C(F)(F)C(F)(F)F unitinfo=ng/mL measurement=0.08
chemicalstring=O=S(=O)(O)C(F)(F)C(F)(F)C(F)(F)C(F)(F)C(F)(F)C(F)(F)F unitinfo=ng/mL measurement=0.12
chemicalstring=O=C(O)C(F)(F)C(F)(F)C(F)(F)C(F)(F)C(F)(F)C(F)(F)F unitinfo=ng/mL measurement=0.02

We now examine a further compound.
Value of measured Specific gravity adjusted urinary level, Median for the entry O=C(O)C(F)(F)C(F)(F)C(F)(F)C(F)(F)C(F)(F)C(F)(F)C(F)(F)F : 0.04

----------
# key: entry, value: Serum PFAS level, Median
# protocolNotes: PFAS levels in serum samples of airport employees (LC/MS/MS)
# settings: 4th sampling (December 2018), count 16
Lab note: record just the number, no unit beside it.

Example results:
molecule="O=S(=O)(O)C(F)(C(F)(F)F)C(F)(F)C(F)(F)C(F)(F)C(F)(F)C(F)(F)C(F)(F)F (stereo not drawn) [1m-PFOS, perfluoro-1-methylheptanesulfonate]" measurement=0.91
molecule="O=C(O)C(F)(F)C(F)(F)C(F)(F)C(F)(F)C(F)(F)C(F)(F)C(F)(F)F [PFOA, perfluorooctanoic acid]" measurement=10

Next molecule, please.
response.value for O=C(O)C(F)(F)C(F)(F)C(F)(F)C(F)(F)C(F)(F)C(F)(F)F [PFHpA, perfluoroheptanoic acid] (field: Serum PFAS level, Median) = 0.15

----------
# protocolNotes: PFAS levels in serum samples of airport employees (LC/MS/MS)
# settings: 3rd sampling (November, 2018), count 17
reportedMetric: Serum PFAS level, 25 percentile
Give your answer as a number; write no unit.

Here's what some known entries look like.
compound="O=S(=O)(O)C(F)(F)C(F)(F)C(F)(F)C(F)(F)C(F)(F)C(F)(F)F [PFHxS, perfluorohexane sulfonic acid]" reportedmetric="Serum PFAS level, 25 percentile" measurement=57
compound="O=S(=O)(O)C(F)(F)C(F)(F)C(F)(F)C(F)(F)C(F)(F)C(F)(F)C(F)(F)F [PFHpS, perfluoroheptane sulfonic acid]" reportedmetric="Serum PFAS level, 25 percentile" measurement=0.94
compound="O=S(=O)(O)C(F)(C(F)(F)F)C(F)(F)C(F)(F)C(F)(F)C(F)(F)C(F)(F)C(F)(F)F (stereo not drawn) [1m-PFOS, perfluoro-1-methylheptanesulfonate]" reportedmetric="Serum PFAS level, 25 percentile" measurement=0.54

// O=C(O)C(F)(F)C(F)(F)C(F)(F)C(F)(F)C(F)(F)C(F)(F)C(F)(F)F [PFOA, perfluorooctanoic acid] : Serum PFAS level, 25 percentile value = 7.9

Per the records, this compound ( O=C(O)C(F)(F)C(F)(F)C(F)(F)C(F)(F)C(F)(F)F [PFHxA, perfluorohexanoic acid] ) has Serum PFAS level, 25 percentile equal to 0.27

Quick note, Serum PFAS level, 25 percentile for O=C(O)C(F)(F)C(F)(F)C(F)(F)C(F)(F)C(F)(F)C(F)(F)F [PFHpA, perfluoroheptanoic acid] landed at 0.09

----------
# protocolNotes: Individual serum elimination rate and half-life (linear regression per employee)
# settings: individual estimate, subject 3, 5 samples
Each entry below carries its reported Elimination rate.
The figure you give is taken to be in yearly; do not add the unit.

Entry under test: O=S(=O)(O)C(F)(C(F)(F)F)C(F)(F)C(F)(F)C(F)(F)C(F)(F)C(F)(F)C(F)(F)F (stereo not drawn) [1m-PFOS, perfluoro-1-methylheptanesulfonate] . Its Elimination rate was 0.8

In plain terms, O=C(O)C(F)(F)C(F)(F)C(F)(F)C(F)(F)C(F)(F)F [PFHxA, perfluorohexanoic acid] has a documented Elimination rate of 1.6

// Elimination rate lookup, compound = O=S(=O)(O)C(F)(F)C(F)(F)C(F)(F)C(F)(F)C(F)(F)C(F)(F)C(F)(F)C(F)(F)F [L-PFOS, linear perfluorooctane sulfonic acid] , result: 0.5

----------
Measured Serum PFAS level, Min accompanies every entry in the list below.
# protocolNotes: PFAS levels in serum samples of airport employees (LC/MS/MS)
# settings: 4th sampling (December 2018), count 16
# Experimental: All 26 employees at the airport were invited for a blood sampling between 11 and 14 September 2018 (i.e., within 11 to 14 d after the termination of contaminated drinking-water exposure). Information on age, home address, employment history, working tasks, and sick leave and vacation days in August and September were collected by questionnaire. […] Aliquots of 4μL of the sample were analyzed using LC/MS/MS. […]
// no unit string in output, number only

// worked examples, Serum PFAS level, Min included
compound="O=S(=O)(O)C(F)(F)C(F)(F)C(F)(F)C(F)(F)C(F)(F)F [PFPeS, perfluoropentane sulfonic acid]" measurement=1.8
compound="O=S(=O)(O)C(F)(F)C(F)(F)C(F)(F)C(F)(F)C(F)(F)C(F)(F)F [PFHxS, perfluorohexane sulfonic acid]" measurement=17
compound="O=S(=O)(O)C(F)(C(F)(F)F)C(F)(F)C(F)(F)C(F)(F)C(F)(F)C(F)(F)C(F)(F)F (stereo not drawn) [1m-PFOS, perfluoro-1-methylheptanesulfonate]" measurement=0.24
compound="O=C(O)C(F)(F)C(F)(F)C(F)(F)C(F)(F)C(F)(F)C(F)(F)C(F)(F)F [PFOA, perfluorooctanoic acid]" measurement=4.3

// recorded Serum PFAS level, Min for O=S(=O)(O)C(F)(F)C(F)(F)C(F)(F)C(F)(F)C(F)(F)C(F)(F)C(F)(F)C(F)(F)F [L-PFOS, linear perfluorooctane sulfonic acid] : 4.4

----------
# protocolNotes: Individual serum elimination rate and half-life (linear regression per employee)
# settings: human, serum, oral, HL (half-life), individual estimate, subject 11, 5 samples
reportedMetric: half-life (days)
Expressed in days, but write only the number.

Recorded half-life, per entry:
chemicalstring=O=C(O)C(F)(F)C(F)(F)C(F)(F)C(F)(F)C(F)(F)C(F)(F)C(F)(F)F reportedmetric=half-life measurement=548
chemicalstring=O=S(=O)(O)C(F)(F)C(F)(F)C(F)(F)C(F)(F)C(F)(F)C(F)(F)F reportedmetric=half-life measurement=1100

Now take the following compound into account.
Consider O=C(O)C(F)(F)C(F)(F)C(F)(F)C(F)(F)C(F)(F)C(F)(F)F . Its measured half-life is 110

----------
This listing pairs compounds with measured Serum PFAS level, 75 percentile.
# protocolNotes: PFAS levels in serum samples of airport employees (LC/MS/MS)
# settings: 3rd sampling (November, 2018), count 17
// keep it numeric: no unit symbol after the value

Below are worked cases with known answers.
chemicalstring=O=S(=O)(O)C(F)(F)C(F)(F)C(F)(F)C(F)(F)C(F)(F)C(F)(F)C(F)(F)C(F)(F)F measurement=16
chemicalstring=O=S(=O)(O)C(F)(F)C(F)(F)C(F)(F)C(F)(F)C(F)(F)C(F)(F)C(F)(F)F measurement=1.9

// next item, Serum PFAS level, 75 percentile requested
Reported Serum PFAS level, 75 percentile ( O=C(O)C(F)(F)C(F)(F)C(F)(F)C(F)(F)C(F)(F)C(F)(F)F ) = 0.75
